# test.protocol: Toxicokinetics in the 28 day dog study of DIO-902 (with racemic ketoconazole group a)
# cond: male, beagle, plasma, po, 6.5 mg/kg, Drug concentration in plasma, dogs, 6.5 mg/kg oral, day 28, M, 1 h
measured.property: concentration at 1 h (ng/mL)
Number only, in ng/mL; omit the unit.

Form field concentration at 1 h, entry CC(=O)N1CCN(c2ccc(OC[C@@H]3CO[C@@](Cn4ccnc4)(c4ccc(Cl)cc4Cl)O3)cc2)CC1 [DIO-902] : 1170

###

# test.protocol: Toxicokinetics in the 28 day dog study of DIO-902 (with racemic ketoconazole group a);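 further: beagle dogs dosed orally once daily within a 28-day GLP study, 3 animals per sex per group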
# cond: male, beagle, plasma, po, 40 mg/kg, AUC(0-12), dogs, group a: 40 mg/kg oral, day 1, M
measured.property: AUC(0-t)
Record the result as a number with its unit.

Documented AUC(0-t) of CC(=O)N1CCN(c2ccc(OCC3COC(Cn4ccnc4)(c4ccc(Cl)cc4Cl)O3)cc2)CC1 (racemic) [Racemic ketoconazole] : 143 µg·h/mL
